All figures here come from ChEMBL document CHEMBL1201862.

# Tested on: SNB-75
# protocol notes: NCI tumour cell line growth inhibition, 48 h
The source made the active and inactive calls. No stated cut-off is given here; in the data, active = GI50 up to about 1.1 µM and inactive = higher.
Hi! Could you answer with just one of these? Yes = active, No = inactive

What classification did O=[N+]([O-])c1ccc(-c2cn(-c3ccc(Cl)cc3)cn2)cc1 end up with in this test?
No

Could you please tell me the result logged for COCC1OC(OC2C3=C(C(C)C)CCC3(C)/C=C3\C(CCC3(O)COC)C(C)C2O)C(O)C2OC3OC12OC3(C)C1CO1 (stereo not given) in this assay?
No

Status in this test for Oc1cccc(C2SCc3nc4ccccc4n32)c1 (stereo not given) ?
No

Which outcome was assigned to Cc1nc2ccccc2n1Cc1nnc2n1N=C(c1ccccc1)CS2 in this test?
No

Please state the recorded outcome for this compound: N#C/C(=C\c1cc(F)cc(F)c1)c1ccccn1
No

Any idea what this test logged for O=C(O)NC(c1ccccc1)C(NC(=O)c1ccccc1)c1ccccc1 (stereo not given) ?
No

Dear all, I need the recorded test outcome for COC1=C(N)C(=O)c2nc(C)ccc2C1=O , thank you.
No

Called result for COc1ccc(C2C=C(c3ccc(C)cc3)N(c3ccc(OC)cc3[N+](=O)[O-])C3C(=O)OC(=O)C23)c(OC)c1 (stereo not given)
No

In this assay, the call recorded for O=C1c2ccccc2C2CNC1(O)c1ccccc12 (stereo not given) was what?
No

Hi, do you know how CC(=O)c1cccc(C)c1C(=O)O came out in this test?
No

I would be grateful if you could indicate the recorded call for C=C(CN(C)C)C(=O)c1ccccc1OC .
No

What did the test return for COC(=O)C(=O)C(C(=O)C(=O)Nc1cccc(OC)c1)c1nc2ccc(Cl)cc2nc1O (stereo not given) ?
No

For this compound, state the assay outcome: CN1C(C)(C)CC(=O)C(Br)C1(C)C (stereo not given)
No

Please indicate how the test categorized Cc1cc(N(CCC#N)CCC#N)ccc1C(/N=N/c1ccc(Cl)cc1)=N\NC(=O)c1ccccc1 .
No

Recorded test outcome, item Nc1ccc(Nc2nc(F)nc(-c3c4ccccc4c4n3CCS4)n2)cc1
No

Identify the outcome logged in this assay for the compound shown: COc1ccc(Nc2nc(C#N)c(N)s2)cc1
No

Recorded test outcome, item COc1ccc(/C=C2\N/C(=N/N)N=C2Cl)cc1
No

What is the recorded call for this compound in the test? CC1(C)CCC(C)(C)C1C(=O)NC(O)C(=O)O (stereo not given)
No

Could you kindly confirm the outcome this assay logged for O=C1CC2(CCN(CC3COc4ccccc4O3)CC2)C(=O)N1N1CCCCCC1 (stereo not given) ?
No

Kindly provide the recorded test outcome for the following compound: CC(C)=CCC/C(C)=C/Cc1c2c(c3oc(-c4ccc(O)c(O)c4)c(O)c(=O)c3c1O)C=CC(C)(C)O2
No

I would be grateful if you could indicate the recorded call for [N-]=[N+]=C1C(=O)C2CC3CC(C2)CC1C3 .
No

Which outcome was entered for the compound CN(C)CCNC(=O)c1cccc2ccc(-c3ccc(Br)cc3)nc12 in this test?
No

Please state the recorded outcome for this compound: Cc1ccc(C2(C)CC/C(=N/N=C3/CCC(C)(c4ccc(C)c(C)c4)c4cc(C)c(C)cc43)c3cc(C)c(C)cc32)cc1C (stereo not given)
No

Dear colleague, could you share the recorded outcome for CC(=O)/C=C/C1=C(C)CCCC1(C)CC(C)C (stereo not given) when you have a moment?
No

Per the records of this test, what outcome belongs to C/C(=C\c1ccccc1)C(=O)c1c(C)cc(C)cc1C ?
No

For CC(=O)OCC1OC(n2cc(F)c(=O)[nH]c2=O)C(OC(C)=O)C1OC(C)=O (stereo not given) , what call appears in the results of this test?
No

So what was the verdict on O=C1Cc2ccccc2N1/N=C\c1ccc([N+](=O)[O-])cc1 in this test?
No

In this assay, the call recorded for CC1SC2=NC3=C(c4ccccc4C3=O)C(c3ccc(F)cc3)N2C1=O (stereo not given) was what?
No

Hello, I am checking results. What call was entered for CC[P+](C)(Cc1ccccc1)c1ccccc1 (stereo not given) ?
No

Assay result, entry CCOC(=O)[C@]12C3C=CC(C3)C1C(=O)C1OC12 (stereo not given in full) — outcome?
No

Dear all, I need the recorded test outcome for C/C(=N\NC(=S)N1CCN(C2CCCCCC2)CC1)c1ccccn1 , thank you.
No

Give the logged outcome of this assay for the following compound: Cc1nc2[nH]ncn2c(=O)c1CCCl
No

What is the recorded call for this compound in the test? O=c1c(O)c(-c2ccc(O)c(O)c2)oc2cc(O)ccc12
No

Entry CC1(C)OCC2OC3([C@@H]4OC(C)(C)O[C@H]4CO)OC(C)(C)OC3C2O1 (stereo not given in full) : call = ?
No

Fill in: this test's call for Cn1c2ccccc2n2c(=O)c3c(c(C#N)c12)CCCC3 is ___
Yes

What was the test verdict on COc1ccc2nc3n(c2c1)CCc1cc(OC)c(OC)cc1-3 ?
No

What is the recorded call for this compound in the test? O=[N+]([O-])c1cnc(N(CCO)CCO)s1
Yes

Record lookup: outcome of this test for Cc1cccc2nc3n(c12)C(=O)c1ccccc1-3 ?
No

For C/C(=N\NC(=S)N(C)CCN(C)C(=S)N/N=C(\C)c1ccccn1)c1ccccn1 , which call appears in the assay record?
Yes

GET /call?item= Cc1cc(C)c2c(c1)CN1CN2Cc2cc(C)cc(C)c21 returns the recorded outcome of this test.
No

Test call, this compound: CC1CC(C)(O)CC(C(O)CC2CC(=O)NC(=O)C2)C1=O (stereo not given)
Yes

So what was the verdict on Cc1cc(Cl)ccc1NC1=NC(=O)C(CC(=O)Nc2ccc([N+](=O)[O-])cc2[N+](=O)[O-])S1 (stereo not given) in this test?
No

Short answer needed: outcome of this test for CCC(C)CC(C)CC(C)/C=C(\C)C1=C(C)CC(C)(O)O1 (stereo not given) ?
No

What was the test verdict on C=C1CC(C)(COc2ccc3ccc(=O)oc3c2)OC1=O (stereo not given) ?
No

Short answer needed: outcome of this test for O=C1CCc2ccc3c(c21)CC1(Cc2ccccc2C1)C3 ?
No
